Please respond with reported PBM binding z-score for every item in the list.
Test system: LXRb:RXRa (NR concentration 270 nM, RXRa partner concentration 90 nM)
Test: PBM binding z-score (relative to random genomic background probes); higher = stronger binding; sequences stand for … in GC…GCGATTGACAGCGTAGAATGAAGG

Req: Identify the reported PBM binding z-score for the following entry. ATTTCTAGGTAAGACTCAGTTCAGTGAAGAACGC
Resp: 0.543

Req: Identify the reported PBM binding z-score for the following entry. ATACCAAGGTGATCGTGAGGTCGTGGATACTAAC
Resp: 1.39

Req: Identify the reported PBM binding z-score for the following entry. TCGAGTAGGATAGTCGGGGCATTCAGCCAACATA
Resp: -0.239

Req: Identify the reported PBM binding z-score for the following entry. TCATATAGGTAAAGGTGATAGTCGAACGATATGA
Resp: 0.539

Req: Identify the reported PBM binding z-score for the following entry. TGTCAAAGTTAAAAGGTAACGTAAGTATCCACAC
Resp: 0.823

Req: Identify the reported PBM binding z-score for the following entry. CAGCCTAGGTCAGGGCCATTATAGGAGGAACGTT
Resp: 0.902

Req: Identify the reported PBM binding z-score for the following entry. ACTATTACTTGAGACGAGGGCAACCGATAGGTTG
Resp: 0.481

Req: Identify the reported PBM binding z-score for the following entry. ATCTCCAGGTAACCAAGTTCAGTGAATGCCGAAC
Resp: 0.753

Req: Identify the reported PBM binding z-score for the following entry. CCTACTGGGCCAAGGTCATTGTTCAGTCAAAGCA
Resp: 2.99

Req: Identify the reported PBM binding z-score for the following entry. TGTCAAAGTTCAAAGGTAACGGAAGTATCCACAC
Resp: 4.82

---

Test system: VDR homodimer (NR concentration 270 nM)
Assay: PBM binding z-score (relative to random genomic background probes); higher = stronger binding; sequences stand for … in GC…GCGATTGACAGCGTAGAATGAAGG
Please respond with reported PBM binding z-score for every item in the list.
Keep the answer to the number alone.

Req: Using VDR homodimer (NR concentration 270 nM) as the test system, report measured PBM binding z-score of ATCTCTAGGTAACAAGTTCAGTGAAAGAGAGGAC .
Resp: 3.36

Req: Using VDR homodimer (NR concentration 270 nM) as the test system, report measured PBM binding z-score of CGTCCAAGGTCAATGCTAGGTCAGTCAAAGCATT .
Resp: 3.23

Req: Using VDR homodimer (NR concentration 270 nM) as the test system, report measured PBM binding z-score of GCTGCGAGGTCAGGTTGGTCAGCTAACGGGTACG .
Resp: 2.88

Req: Using VDR homodimer (NR concentration 270 nM) as the test system, report measured PBM binding z-score of CCTAGTTGGTCAGGAGGTCACACTCCGGATATGA .
Resp: 2.5

Req: Using VDR homodimer (NR concentration 270 nM) as the test system, report measured PBM binding z-score of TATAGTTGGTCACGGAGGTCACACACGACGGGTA .
Resp: 2.85

---

Test system: RXRa homodimer (NR concentration 180 nM)
Test: PBM binding z-score (relative to random genomic background probes); higher = stronger binding; sequences stand for … in GC…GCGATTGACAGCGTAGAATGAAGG
measure: PBM binding z-score

Req: Identify the reported PBM binding z-score for the following entry. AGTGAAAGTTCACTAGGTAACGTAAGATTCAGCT
Resp: 3.77

Req: Identify the reported PBM binding z-score for the following entry. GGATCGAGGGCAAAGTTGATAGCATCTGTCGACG
Resp: 2.08

Req: Identify the reported PBM binding z-score for the following entry. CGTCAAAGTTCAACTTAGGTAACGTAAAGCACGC
Resp: 5.38

Req: Identify the reported PBM binding z-score for the following entry. GAAGACAGGTGAAACGCAGGTAACTCAGGGTGGC
Resp: 0.66

Req: Identify the reported PBM binding z-score for the following entry. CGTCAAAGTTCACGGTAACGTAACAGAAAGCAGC
Resp: 6.17

Req: Identify the reported PBM binding z-score for the following entry. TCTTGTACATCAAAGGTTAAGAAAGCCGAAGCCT
Resp: 2.7

Req: Identify the reported PBM binding z-score for the following entry. CAGCCTAGGTCAGGTCCAGTATAGGAGGAACGTT
Resp: 1.14

Req: Identify the reported PBM binding z-score for the following entry. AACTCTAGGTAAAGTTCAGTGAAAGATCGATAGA
Resp: 1.19

Req: Identify the reported PBM binding z-score for the following entry. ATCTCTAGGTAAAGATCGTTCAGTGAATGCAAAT
Resp: -0.178

Req: Identify the reported PBM binding z-score for the following entry. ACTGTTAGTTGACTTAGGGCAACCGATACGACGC
Resp: 0.472

Req: Identify the reported PBM binding z-score for the following entry. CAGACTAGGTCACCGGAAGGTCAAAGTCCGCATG
Resp: 6.56

Req: Identify the reported PBM binding z-score for the following entry. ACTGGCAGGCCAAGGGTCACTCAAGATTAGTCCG
Resp: 3.95

Req: Identify the reported PBM binding z-score for the following entry. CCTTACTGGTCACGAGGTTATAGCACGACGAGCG
Resp: 2.28

Req: Identify the reported PBM binding z-score for the following entry. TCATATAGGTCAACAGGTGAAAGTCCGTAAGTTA
Resp: 5.39

Req: Identify the reported PBM binding z-score for the following entry. GCTGCTAGGTCAACTGATGCTCAGCTAAAGCTCG
Resp: 2.89

Req: Identify the reported PBM binding z-score for the following entry. TCCGCTAGGTCAACGATGGTCAGCTAATCTGCTA
Resp: 2.23

Req: Identify the reported PBM binding z-score for the following entry. CGCCCAAGGTCATAGGAGGTCAGTGAAGACAGAT
Resp: 6.07

---

System: PPARg:RXRa (NR concentration 180 nM, RXRa partner concentration 90 nM)
Assay: PBM binding z-score (relative to random genomic background probes); higher = stronger binding; sequences stand for … in GC…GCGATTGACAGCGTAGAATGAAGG
Just so you know, the groups by PBM binding z-score go like this: b0: < 1; b1: ≥ 1 and < 3; b2: ≥ 3

Req: Note: place this sequence into its band. Item: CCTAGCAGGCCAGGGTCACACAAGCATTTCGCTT
Resp: b1

Req: Note: place this sequence into its band. Item: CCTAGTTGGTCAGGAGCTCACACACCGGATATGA
Resp: b0

Req: Note: place this sequence into its band. Item: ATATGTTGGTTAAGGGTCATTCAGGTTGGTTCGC
Resp: b2

Req: Note: place this sequence into its band. Item: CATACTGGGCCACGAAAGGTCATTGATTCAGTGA
Resp: b2

Req: Note: place this sequence into its band. Item: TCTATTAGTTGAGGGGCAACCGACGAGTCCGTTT
Resp: b0

Req: Note: place this sequence into its band. Item: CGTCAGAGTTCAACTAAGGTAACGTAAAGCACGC
Resp: b2

Req: Note: place this sequence into its band. Item: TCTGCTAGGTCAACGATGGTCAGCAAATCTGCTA
Resp: b1

Req: Note: place this sequence into its band. Item: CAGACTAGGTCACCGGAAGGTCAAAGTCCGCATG
Resp: b2

Req: Note: place this sequence into its band. Item: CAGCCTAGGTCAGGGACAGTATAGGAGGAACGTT
Resp: b1

Req: Note: place this sequence into its band. Item: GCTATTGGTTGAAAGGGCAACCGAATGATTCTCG
Resp: b1

Req: Note: place this sequence into its band. Item: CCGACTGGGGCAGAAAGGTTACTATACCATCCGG
Resp: b1

Req: Note: place this sequence into its band. Item: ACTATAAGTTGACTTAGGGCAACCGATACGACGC
Resp: b1

Req: Note: place this sequence into its band. Item: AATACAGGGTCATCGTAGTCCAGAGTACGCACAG
Resp: b2

Req: Note: place this sequence into its band. Item: AATACAGGGTCACTAGGCCAGTGTAGGTACGAAT
Resp: b2

Req: Note: place this sequence into its band. Item: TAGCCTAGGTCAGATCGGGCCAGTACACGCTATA
Resp: b0

---

System: PPARa:RXRa (NR concentration 270 nM, RXRa partner concentration 90 nM)
Assay: PBM binding z-score (relative to random genomic background probes); higher = stronger binding; sequences stand for … in GC…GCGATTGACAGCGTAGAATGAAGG
measure: PBM binding z-score

Req: Identify the reported PBM binding z-score for the following entry. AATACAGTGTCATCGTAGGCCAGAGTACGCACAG
Resp: 0.815

Req: Identify the reported PBM binding z-score for the following entry. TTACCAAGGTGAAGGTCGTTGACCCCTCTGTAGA
Resp: 4.34

Req: Identify the reported PBM binding z-score for the following entry. CCTTACGGGTCACTCCAGGTTATAGCATCGGAGT
Resp: 4.64
